biological target: mAChR M4 (Homo sapiens, UniProt P08173); construct: expressed in transfected cells; host or cells: CHO-K1 cells stably transfected with M4 cDNA and chimeric G-protein Gqi5; test: mAChR M4 cell-based functional assay (calcium mobilization, potentiation of EC20 acetylcholine response); conditions: mAChR M4 cell-based functional assay; >10,000 estimated for low potency compounds without plateau; read-out: EC50
Sequence (P08173 whole entry): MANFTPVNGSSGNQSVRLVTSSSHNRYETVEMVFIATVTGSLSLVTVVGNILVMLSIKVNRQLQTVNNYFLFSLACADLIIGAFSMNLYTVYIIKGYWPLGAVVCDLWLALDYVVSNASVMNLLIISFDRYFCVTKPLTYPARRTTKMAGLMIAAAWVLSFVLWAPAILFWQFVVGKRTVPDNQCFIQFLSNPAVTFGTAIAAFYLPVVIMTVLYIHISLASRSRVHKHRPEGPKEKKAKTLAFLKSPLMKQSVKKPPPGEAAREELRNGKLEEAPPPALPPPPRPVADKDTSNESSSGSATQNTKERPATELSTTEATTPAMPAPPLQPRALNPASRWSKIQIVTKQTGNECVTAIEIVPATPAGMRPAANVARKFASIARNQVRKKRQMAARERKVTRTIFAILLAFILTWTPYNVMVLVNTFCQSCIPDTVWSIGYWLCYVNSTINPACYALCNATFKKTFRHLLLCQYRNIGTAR
pEC50: −log10 of the molar value.
reported metric: pEC50

// solved cases for pEC50 follow
>>> reading("COc1ccc(CNC(=O)c2sc3nnc(C)c(C)c3c2N)cc1Cl [Example B446]")
7.77
>>> reading("Cc1nnc2sc(C(=O)N[C@@H]3C[C@H]3c3ccc(S(C)(=O)=O)cc3)c(N)c2c1C (single isomer, unassigned) [Example B111]")
6.62
>>> reading("Cc1cc(CNC(=O)c2sc3nnc(C)c(C)c3c2N)ccn1 [Example B4]")
6.19
>>> reading("COc1cccc(C(=O)N2CCC(NC(=O)c3sc4nnc(C)c(C)c4c3N)C2)c1 (centres unmarked) [Example B231]")
6.64
>>> reading("Cc1nnc2sc(C(=O)NCc3cc(F)ccc3F)c(N)c2c1C [Example B5]")
6.74
>>> reading("Cc1nnc2sc(C(=O)N3CC(S(=O)(=O)c4ccc(F)c(F)c4)C3)c(N)c2c1C [Example B415]")
5.89
>>> reading("Cc1nnc2sc(C(=O)NC3CN(C(=O)OCc4ccccc4)C3)c(N)c2c1C [Example B124]")
7.66
>>> reading("Cc1nnc2sc(C(=O)NC3CN(C(=O)c4cccs4)C3)c(N)c2c1C [Example B128]")
7.51

P. COc1ccc([C@H]2C[C@@H]2NC(=O)c2sc3nnc(C)c(C)c3c2N)cc1 (single isomer, unassigned) [Example B31]
Q. Cc1nnc2sc(C(=O)Nc3ccncc3)c(N)c2c1C [Example B38]
R. Cc1nnc2sc(C(=O)NCc3ccc(S(=O)(=O)CCO)cc3)c(N)c2c1C [Example B387]
Input: Rank ascending by pEC50. Your answer should be the labels, listed in the requested order.
Output: Q, R, P
(Q: 6.22, R: 7.17, P: 8.12)

A. COc1ccc(CNC(=O)c2sc3nnc(C)c(C)c3c2N)nc1 [Example B508]
B. Cc1nnc2sc(C(=O)NCCc3ccccn3)c(N)c2c1C [Example B94]
Input: Lower value for measured pEC50? Options: A , B Lab note: record the label of whichever item you select.
Output: B
(B: 5.30, A: 6.11)

I. Cc1nnc2sc(C(=O)N3CC(F)(c4ccc(S(C)(=O)=O)cc4)C3)c(N)c2c1C [Example B383]
II. Cc1nnc2sc(C(=O)NC3CN(C(=O)c4ccc(F)cc4)C3)c(N)c2c1C [Example B155]
III. Cc1nnc2sc(C(=O)N3CC(F)(c4cccc(F)c4)C3)c(N)c2c1C [Example B293]
IV. COc1cccc(OC(=O)N2CC(NC(=O)c3sc4nnc(C)c(C)c4c3N)C2)c1 [Example B368]
Input: Put the items in sequence by pEC50, from largest down. Your answer should be the labels, listed in the requested order.
Output: IV, II, III, I
(IV: 7.92, II: 7.03, III: 6.82, I: 6.29)

A. COc1ccc(CNC(=O)c2sc3nnc4c(c3c2N)CCCC4)cc1 [Example B52]
B. Cc1nnc2sc(C(=O)NCCNS(=O)(=O)c3ccc(F)cc3)c(N)c2c1C [Example B353]
Input: Lower value for measured pEC50? Options: A , B Lab note: record the label of whichever item you select.
Output: B
(B: 5.47, A: 7.11)

I. Cc1nnc2sc(C(=O)NCc3ccc(OCF)cc3)c(N)c2c1C [Example B411]
II. COc1ncc(CNC(=O)c2sc3nnc(C)c(C)c3c2N)cn1 [Example B399]
III. Cc1nnc2sc(C(=O)NC3CN(C(=O)C(C)(C)C)C3)c(N)c2c1C [Example B121]
IV. CCCCCC(=O)N1CCC(NC(=O)c2sc3nnc(C)c(C)c3c2N)C1 (centres unmarked) [Example B232]
Input: Rank ascending by pEC50. Your answer should be the labels, listed in the requested order.
Output: III, IV, II, I
(III: 6.08, IV: 6.28, II: 6.54, I: 7.28)

I. COCOc1ccc(CNC(=O)c2sc3nnc(C)c(C)c3c2N)cc1F [Example B162]
II. Cc1nnc2sc(C(=O)NCCNC(=O)c3ccccc3)c(N)c2c1C [Example B347]
Input: Lower value for measured pEC50? Options: I , II Lab note: record the label of whichever item you select.
Output: II

I. Nc1c(C(=O)NCc2ccc(S(=O)(=O)C(F)F)cc2)sc2nnc3c(c12)CCCC3 [Example B427]
II. CCCCC1(F)CN(C(=O)c2sc3nnc(C)c(C)c3c2N)C1 [Example B307]
III. Cc1nnc2sc(C(=O)NCc3ccco3)c(N)c2c1C [Example B102]
Input: Put the items in sequence by pEC50, from largest down. Your answer should be the labels, listed in the requested order.
Output: I, II, III

a. Cc1nnc2sc(C(=O)NC3CN(C(=O)c4cccc(Cl)c4)C3)c(N)c2c1C [Example B392]
b. Cc1nnc2sc(C(=O)N3CC4CN(C5CCCC5)CC4C3)c(N)c2c1C (centres unmarked) [Example B286]
Input: Between the two listed entries a and b , which has its pEC50 at the higher number? Lab note: record the label of whichever item you select.
Output: a
